Test: Metabolic stability, liver microsomes
Type: in vitro ADME
Settings: Rat, 37 °C, read-out: Liver microsomes t1/2 (converted)
endpoint: half-life at 1 µM (h)
# output: bare number, implied unit h

Record CC(C)n1c(C2CCNCC2)nc2c([N+](=O)[O-])c(Br)c(Br)cc21 [SEL24-B489] . Reported half-life at 1 µM: 21.8

====

Test: Blood biochemistry in mice with MV-4-11 tumors
Type: in vivo
Settings: SEL24-B489 25 mg/kg, treatment day 15
endpoint: K (mM)
# output: bare number, implied unit mM

Record CC(C)n1c(C2CCNCC2)nc2c([N+](=O)[O-])c(Br)c(Br)cc21 . Reported K: 5.3
